- System: Integrase IN_CRF consensus (HIV-1 CRF63_02A1 (consensus of Siberian/Ural isolates))
- assay method text: DRaCALA (nitrocellulose)
- assay context: 20 mM HEPES pH 7.2, 10 mM DTT, 7.5 mM MgCl2, 25 C; DRaCALA: 5 nM DNA, 0-500 nM IN, 20 min
pKd: −log10 of the molar value.

# query sequence, tested on, pKd
measured = [
    ("GTGTGGAAAATCTCTAGCAGT (double strand) [U5B/U5A duplex]", "Integrase IN_CRF consensus (HIV-1 CRF63_02A1 (consensus of Siberian/Ural isolates))", 7.64),
]

* * *

- System: Integrase IN_A (HIV-1 subtype A strain FSU-A)
- assay method text: DRaCALA (nitrocellulose)
- assay context: 20 mM HEPES pH 7.2, 10 mM DTT, 7.5 mM MgCl2, 25 C; DRaCALA: 5 nM DNA, 0-500 nM IN, 20 min
pKd: −log10 of the molar value.

# query sequence, tested on, pKd
data = [
    ("GTGTGGAAAATCTCTAGCAGT (double strand) [U5B/U5A duplex]", "Integrase IN_A (HIV-1 subtype A strain FSU-A)", 7.60),
]
